// reported activity at 10 µM per item
# Tested on: COLO 205
# Assay summary: NCI60 one-dose screen (10 μM), Colon Cancer
# Type: cell-based, human
# Assay setup: Homo sapiens; 10 μM; COLO 205, Colon Cancer; read-out: Growth percent rate
Could you give the number and then its unit, please?

{"Molecule": "CC[C@]12C=CCN3CC[C@@]4(c5ccc(OC)cc5N(C)[C@H]4[C@@](O)(C(=O)OC)[C@@H]1OC(=O)CCC(=O)N1CCN(Cc4ccc(F)cc4)CC1)[C@@H]32", "Parameter": "activity at 10 µM", "Assay result": "66.7%"}

Returns the measured activity at 10 µM for the input molecule. Input: `CC[C@]12C=CCN3CC[C@@]4(c5ccc(OC)cc5N(C)[C@H]4[C@@](O)(C(=O)OC)[C@@H]1OC(=O)CCC(=O)N1CCN(Cc4ccc(C(F)(F)F)cc4)CC1)[C@@H]32`
-91%

Same question for CCC12C=CCN3CCC4(c5ccc(OC)cc5N(C)C4C(O)(C(=O)OC)C1OC(=O)CCC(=O)O)C32 (stereo not drawn) please.
93.6%

Moving on to the next molecule: `CC[C@]12C=CCN3CC[C@@]4(c5ccc(OC)cc5N(C)[C@H]4[C@@](O)(C(=O)OC)[C@@H]1OC(=O)CCCN1CCN(C(=O)c4ccco4)CC1)[C@@H]32`
99.7%

Follow-up entry: CCC12C=CCN3CCC4(c5ccc(OC)cc5N(C)C4C(O)(C(=O)OC)C1OC(=O)CCCBr)C32 (stereo not drawn)
101%

Okay, and CCC12C=CCN3CCC4(c5cc(NC(=O)CCl)c(OC)cc5N(C)C4C(O)(C(=O)OC)C1OC(C)=O)C32 (stereo not drawn) ?
87.2%

Same question for `CC[C@]12C=CCN3CC[C@@]4(c5ccc(OC)cc5N(C)[C@H]4[C@@](O)(C(=O)OC)[C@@H]1OC(=O)CCCN1CCN(Cc4ccc(F)cc4)CC1)[C@@H]32` please.
-59.6%

// repeat for `CC[C@]12C=CCN3CC[C@@]4(c5ccc(OC)cc5N(C)[C@H]4[C@@](O)(C(=O)OC)[C@@H]1OC(=O)CCC(=O)N1CCN(C)CC1)[C@@H]32` and report
118%

And what about the molecule `CC[C@]12C=CCN3CC[C@@]4(c5ccc(OC)cc5N(C)[C@H]4[C@@](O)(C(=O)OC)[C@@H]1OC(=O)CCCN1CCN(c4ccc(C(F)(F)F)cc4)CC1)[C@@H]32` ?
-93.5%

Note, next up: CCC12C=CCN3CCC4(c5cc(NC(=O)CN6CCN(C(=O)c7ccco7)CC6)c(OC)cc5N(C)C4C(O)(C(=O)OC)C1OC(C)=O)C32 (stereo not drawn)
120%

What about `CC[C@]12C=CCN3CC[C@@]4(c5ccc(OC)cc5N(C)[C@H]4[C@@](O)(C(=O)OC)[C@@H]1OC(=O)CCC(=O)N1CCN(c4ccc(C(F)(F)F)cc4)CC1)[C@@H]32` ?
-90.3%

Queued: CCC12C=CCN3CCC4(c5cc(NC(=O)CN6CCN(C)CC6)c(OC)cc5N(C)C4C(O)(C(=O)OC)C1OC(C)=O)C32 (stereo not drawn)
105%

* * *

# System: NCI-H226
# Assay summary: NCI60 one-dose screen (10 μM), Non-small Cell Lung Cancer
# Format: cell-based
# Assay setup: Homo sapiens, NCI-H226, read-out: Growth percent rate
Parameter: activity at 10 µM (%)
Kindly provide the numeric value in % only, without the unit symbol.

The following molecules have reported results that may help.
{"Molecule": "CC[C@]12C=CCN3CC[C@@]4(c5ccc(OC)cc5N(C)[C@H]4[C@@](O)(C(=O)OC)[C@@H]1OC(=O)CCCN1CCN(C(c4ccc(F)cc4)c4ccc(F)cc4)CC1)[C@@H]32", "Unit name": "%", "Assay result": -74.8}
{"Molecule": "CCC12C=CCN3CC[C@@]4(c5ccc(OC)cc5N(C)[C@H]4[C@@](O)(C(=O)OC)[C@@H]1OC(C)=O)[C@@H]32 (stereo partly drawn)", "Unit name": "%", "Assay result": 92.3}

Quick check: activity at 10 µM on NCI-H226, item `CC[C@]12C=CCN3CC[C@@]4(c5ccc(OC)cc5N(C)[C@H]4[C@@](O)(C(=O)OC)[C@@H]1OC(=O)CCC(=O)N1CCN(C(=O)c4ccco4)CC1)[C@@H]32` ?
115

Can you check CCC12C=CCN3CCC4(c5cc(NC(=O)CN6CCN(Cc7ccc(C(F)(F)F)cc7)CC6)c(OC)cc5N(C)C4C(O)(C(=O)OC)C1OC(C)=O)C32 (stereo not drawn) next?
67.7

Cool, now CCC12C=CCN3CCC4(c5ccc(OC)cc5N(C)C4C(O)(C(=O)OC)C1O)C32 (stereo not drawn)
88.5

Moving on to CCC12C=CCN3CCC4(c5cc(NC(=O)CN6CCN(Cc7ccc(F)cc7)CC6)c(OC)cc5N(C)C4C(O)(C(=O)OC)C1OC(C)=O)C32 (stereo not drawn)
97.8

Every entry's value here was drawn from paper PMC11277489.
